test system: A549/ATCC NSCLC; assay: NCI-60 one-dose screen, 48 h; conditions: 10 µM unless noted
This is part of a sample that, as a whole, favours compounds with a hit. Of some 83,000 tested, about 20% had one in any assay. Active and inactive are the calls of the source. Rule for the calls: active = growth percent below 10; inactive = the rest.
Reply using exactly one outcome from class 1 (active), class 0 (inactive)

O=C1c2cccc3cccc(c23)C(=O)N1CC#Cc1ccc2c3c(cccc13)C(=O)N(CCO)C2=O	class 0

Q: Write down the call the test reported for this compound. Item: `Cc1cc(C=O)c(C)c2c1[nH]c1ccccc12`
A: class 0

Q: Write down the call the test reported for this compound. Item: Cc1c(C)c2c(c(C)c1NC(=O)CCCCCCC(=O)O)CCC(C)(CCCC(C)CCCC(C)CCCC(C)C)O2 (stereo not given)
A: class 0

Reference source for all entries: PubChem BioAssay (NCI)
